Values compiled from patent US20240409645A1.

Target: T1, mouse IL-2Rγ, recombinant protein (mouse, UniProt P34902 23-263, limits assumed)
T1 sequence (looked up): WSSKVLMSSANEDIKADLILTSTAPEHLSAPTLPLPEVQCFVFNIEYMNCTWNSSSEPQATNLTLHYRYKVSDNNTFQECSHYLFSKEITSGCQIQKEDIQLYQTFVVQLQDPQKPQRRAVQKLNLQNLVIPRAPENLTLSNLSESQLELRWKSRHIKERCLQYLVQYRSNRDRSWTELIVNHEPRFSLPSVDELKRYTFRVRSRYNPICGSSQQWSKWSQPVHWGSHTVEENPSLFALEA
Experiment: P.E. off-rate SPR
Recorded koff by entry
Numbers only here, please. The scale is s⁻¹.

Below, 2 binders whose answers are already recorded.
1. 31-MP04E03 VHH (periplasmic extract) (VHH, soluble VHH in periplasmic extract) VHH: QVQLVESGGGLVQAGGSLRLSCTGYGGAFTGYALGWFRQAPGKEREFVARINWSGSFTYYASSVKGRFTISRDNAKNTMYLQMNNLKPEDTAVYYCAADNPSTLATDYDNWGQGTQVTVSS
0.283
2. 34-MP04A12 VHH (periplasmic extract) (VHH, soluble VHH in periplasmic extract) VHH: QVQLVESGGGLVQAGSSLRLSCAASGRTLSRLAMGWFRQAPGKEREFVAVNSWGGDTFYADSVEGRFTYSRDNAKSAVYLQMNSLQPEDTAVYYCAAAPTSFATTAYSSSNSYAYWGQGAQVTVSS
0.00809

Exercise: Any idea what koff was measured for 28-MP04D02 VHH (periplasmic extract) (VHH, soluble VHH in periplasmic extract) VHH: QVQLVESGGGLVQAGGSLRLSCAASGRTLSRYAMGWFRQAPGKEREFVTANSWGGDTYYADSVQGRFTFSRDNAKNTVYLQMNSLQPEDTAVYYCAAAPTSFATTAYSGSNSYAYWGQGTQVTVSS ?
Solution: 0.319

Exercise: Any idea what koff was measured for 37-MP07F09 VHH (periplasmic extract) (VHH, soluble VHH in periplasmic extract) VHH: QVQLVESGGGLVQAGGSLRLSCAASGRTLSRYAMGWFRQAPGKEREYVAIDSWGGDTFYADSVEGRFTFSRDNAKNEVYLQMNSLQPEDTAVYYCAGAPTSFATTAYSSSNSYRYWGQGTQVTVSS ?
Solution: 0.007

Exercise: Any idea what koff was measured for 38-MP07A11 VHH (periplasmic extract) (VHH, soluble VHH in periplasmic extract) VHH: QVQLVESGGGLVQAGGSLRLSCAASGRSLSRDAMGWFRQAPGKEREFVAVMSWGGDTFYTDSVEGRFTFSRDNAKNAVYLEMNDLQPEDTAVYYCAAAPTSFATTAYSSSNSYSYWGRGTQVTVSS ?
Solution: 0.0149
